System: Human papillomavirus type 1a protein E7 (residues 44-93)
ASSAY EXPLANATION: small molecules binding HPV E7 44-93 – biochemical, small-molecule microarray, residues 44-93, 635 nm fluorescence, primary screen (AID 1108);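 further: E7 fragment applied at 1 µg/mL in TBST for 1 h at 4 C; score combines spot fluorescence with its signal to noise ratio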
CONDITIONS: fluorescence 635 nm, higher = more signal
Lab note: anything with composite z-score at or over 1 counts as yes; the rest go in no.

Past entries and their recorded results:
INPUT: Is it the case that O=C1C2C=CC(C(O)c3ccc(B(O)O)cc3)N(Nc3ccc([N+](=O)[O-])cc3)C2C(=O)N1c1ccccc1 (stereo not drawn) has composite z-score reaching or exceeding 1?
OUTPUT: yes

INPUT: Again, but for `C=C(CCCC)C(=O)CC[C@H](OC(C)=O)c1ccc(CO)o1`
OUTPUT: no

Please examine the following record next.
INPUT: Is it the case that `C=CC[C@@]1(C(N)=O)N=C(c2ccc(OCCCO)cc2)O[C@@H]1c1ccccc1N=[N+]=[N-]` has composite z-score reaching or exceeding 1?
OUTPUT: no

###

Assignment: determine reported composite z-score for the given compounds.
SYSTEM: Carbonic anhydrase 2 (Homo sapiens) (UniProt P00918)
ASSAY EXPLANATION: compounds binding carbonic anhydrase 2 – biochemical, small-molecule microarray, Alexa647-labelled CAII, profiling panel (AID 1122)
CONDITIONS: CAII-A647 binding fluorescence, higher = more signal
Give bare numbers.

Parameter requested: composite z-score. Apply to each item below.
1. NC(=O)NCC#Cc1ccc2c(c1)[C@]1(C(=O)N2)[C@H](c2ccccc2OCCO)N2[C@H](c3ccccc3)[C@H](c3ccccc3)OC(=O)[C@H]2[C@@H]1C(=O)N1CCCCCCC1
2. O=C1c2ccccc2[C@](Cc2ccccc2I)(C(=O)O)[C@H](c2ccc(CO)cc2)N1Cc1ccccc1C(F)(F)F
3. COCCOC(=O)N1C(=O)[C@@]2(c3cc(C#CCC(C(=O)OC)C(=O)OC)ccc31)[C@H](c1ccccc1OCCO)N1[C@H](c3ccccc3)[C@H](c3ccccc3)OC(=O)[C@H]1[C@@H]2C(=O)Nc1nc2ccccc2s1
4. COC(=O)[C@@]1(Cc2ccc(F)cc2)[C@H]2c3cc(C(=O)N(C)C)n(CCc4c[nH]c5ccc(OC)cc45)c3C[C@H]2CN1C(=O)c1ccccc1
5. C=CCCN(CC#C[C@H]1Oc2ccccc2S(=O)(=O)N2CCC[C@@H]12)S(=O)(=O)c1ccc(C)cc1

OUTPUT:
0.951
0.583
0.324
0.617
0.208

INPUT: Can you share its composite z-score? I mean this compound: CC(c1ccccc1)C(O)C1C=CC2C(=O)N(Cc3ccccc3)C(=O)C2N1n1cnnc1 (stereo unspecified)
OUTPUT: 0.415

###

SYSTEM: E3 ubiquitin-protein ligase XIAP (Homo sapiens)
ASSAY EXPLANATION: small molecules binding XIAP protein – biophysical, small-molecule microarray, fluorescence 635 nm, primary screen (AID 1181);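 further: score merges 667 nm emission and signal to noise over triplicate slides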
CONDITIONS: higher = more signal
Lab note: anything with composite z-score at or over 0.06 counts as TRUE; the rest go in FALSE.

Past entries and their recorded results:
INPUT: Is it the case that `C=CCOC(=O)[C@@H]1[C@H]2C(=O)O[C@H](c3ccccc3)[C@H](c3ccccc3)N2[C@H](c2ccc(OCCOC(=O)[C@H]3C[C@H]4C(=O)N[C@@H](CCCC[N+](C)(C)C)C(=O)N4[C@H]3c3cccc(OCCO)c3)cc2)[C@@]12C(=O)Nc1ccc(I)cc12` has composite z-score reaching or exceeding 0.06?
OUTPUT: TRUE

INPUT: Again, but for `COCCOC(=O)N1C(=O)[C@@]2(c3cc(C#CC4(O)CCCCCC4)ccc31)[C@H](c1ccc(O)cc1)N1[C@H](c3ccccc3)[C@H](c3ccccc3)OC(=O)[C@H]1[C@@H]2C(=O)N1CCc2cc(OC)c(OC)cc2C1`
OUTPUT: FALSE

INPUT: Again, but for `C[n+]1ccc2ccc(O)cc2c1`
OUTPUT: TRUE

INPUT: Again, but for `Cc1cccc(/C=C/C=O)c1`
OUTPUT: FALSE

INPUT: Again, but for `COCCCNC(=O)[C@@]1(Sc2ccc(C)cc2)CC(=O)N(Cc2ccccc2)[C@@H]1c1ccc(CO)cc1`
OUTPUT: FALSE

Further cases:
INPUT: Is it the case that O=C1OCC=C[C@H]2OC34C=CCN(c5ccc6ccccc6c5)C(=O)[C@H]3N(CCO)C(=O)[C@@H]4[C@@H]12 (some centres undefined) has composite z-score reaching or exceeding 0.06?
OUTPUT: TRUE

INPUT: Again, but for `C=CCN1Cc2ccccc2C[C@]2(N=C(c3ccc(OCCCO)cc3)O[C@@H]2c2ccccc2)C1=O`
OUTPUT: FALSE

INPUT: Again, but for CC1CC/C=C\[C@H]2OC34C=CCN(CCN5CCOCC5)C(=O)[C@H]3N(CCCCCO)C(=O)[C@@H]4C2C(=O)O1 (some centres undefined)
OUTPUT: TRUE

INPUT: Again, but for `O=C(NCc1ccccc1)[C@@H]1c2ccccc2C(=O)N(Cc2cc(F)cc(C(F)(F)F)c2)[C@H]1c1ccc(CO)cc1`
OUTPUT: FALSE

INPUT: Again, but for `O[C@@H](Cc1ccccc1)[C@@H](/C=C/c1ccccc1)NCc1ccccc1Br`
OUTPUT: FALSE

INPUT: Again, but for `C=C(C(=O)CC[C@@H](OC(=O)c1cccnc1)c1ccc(CO)o1)C(C)C`
OUTPUT: TRUE

INPUT: Again, but for `COC(=O)[C@@]1(Cc2ccc(F)cc2)[C@H]2c3cc(C(=O)N(C)C)n(Cc4ccccn4)c3C[C@H]2CN1C(=O)c1ccccc1`
OUTPUT: TRUE

INPUT: Again, but for `Cc1ccc([C@H]2C(C(=O)O)=C[C@@H](C(C)C)N2S(=O)(=O)c2ccc(C)cc2)cc1`
OUTPUT: FALSE

INPUT: Again, but for CN1C(=O)C2C=CC(C(O)C=Cc3ccc([N+](=O)[O-])cc3)N(N3CCCCC3)C2C1=O (centres undefined)
OUTPUT: TRUE

INPUT: Again, but for `COc1ccc(CCNC(=O)[C@@]2(C)c3ccccc3C(=O)N(Cc3ccccc3)[C@H]2c2ccc(CO)cc2)cc1`
OUTPUT: FALSE
